These data points were gathered from patent US8309550B2.

IC50 values for the molecules below.
Target: CDK5/p35 (Homo sapiens, UniProt Q00535)
Construct: purchased Invitrogen PV3000
Sequence (Q00535 whole entry): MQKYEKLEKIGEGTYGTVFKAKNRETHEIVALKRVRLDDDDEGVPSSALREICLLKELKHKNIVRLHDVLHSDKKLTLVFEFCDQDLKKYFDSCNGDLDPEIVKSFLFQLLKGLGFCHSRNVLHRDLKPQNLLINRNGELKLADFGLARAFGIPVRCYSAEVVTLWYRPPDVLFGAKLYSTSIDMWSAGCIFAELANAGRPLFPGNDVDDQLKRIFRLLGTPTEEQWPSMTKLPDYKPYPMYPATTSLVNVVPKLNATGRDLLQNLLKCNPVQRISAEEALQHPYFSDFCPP
Sequence (Q15078 whole entry partner): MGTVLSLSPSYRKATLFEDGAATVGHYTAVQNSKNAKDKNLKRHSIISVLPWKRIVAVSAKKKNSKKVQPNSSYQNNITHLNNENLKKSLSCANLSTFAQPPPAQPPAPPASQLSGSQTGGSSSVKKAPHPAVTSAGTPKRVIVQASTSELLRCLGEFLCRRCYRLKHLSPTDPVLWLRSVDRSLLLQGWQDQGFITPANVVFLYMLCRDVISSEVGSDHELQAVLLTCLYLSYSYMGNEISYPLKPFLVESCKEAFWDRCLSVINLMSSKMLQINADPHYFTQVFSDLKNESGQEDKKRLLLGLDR
Assay: Z'-LYTE kinase assay CDK5/p35
Assay type: biochemical
Conditions: read-out: Kinase inhibition, IC50 CDK5/p35
I only need the number, in nM, no unit after it.

Past entries and their recorded results:
CCn1cc(-c2ccnc(Nc3cccc(O)c3)n2)c2cccnc21: 1960
CCn1cc(-c2ccnc(Nc3cccc(O)c3)n2)c2ccccc21: 375
CCn1cc(-c2ccnc(Nc3cccc(C#N)c3)n2)c2cccnc21: 4610
Cn1cc(-c2ccnc(Nc3cccc(O)c3)n2)c2ccccc21: 2610
CCn1cc(-c2ccnc(Nc3cccc(C(N)=O)c3)n2)c2cccnc21: 3180
Cn1cc(-c2ccnc(Nc3ccc(O)cc3)n2)c2ccccc21: 950

Could you now consider this next molecule?
// query IC50 value for entry `CCCn1cc(-c2ccnc(Nc3cccc(S(N)(=O)=O)c3)n2)c2cccnc21`
400
